assay_details: in vivo
Set-up: species or system male Wistar rats
cond: rat, im, 120 mg/kg
property_measured: concentration at 624 h
# output: numeric value plus its unit

Measured concentration at 624 h of CCCCCCCCCC(=O)O[C@@H](c1cccc(OC)c1OC)C1CCN(CCc2ccc(F)cc2)CC1 : 38.9 ng/mL

###

assay_details: in vivo
Design: species or system male Wistar rats
cond: rat, im, 120 mg/kg
property_measured: concentration at 528 h

Measured concentration at 528 h of CCCCCCCCCC(=O)O[C@@H](c1cccc(OC)c1OC)C1CCN(CCc2ccc(F)cc2)CC1 : 46.3 ng/mL

###

assay_details: in vivo
Set-up: species or system male Wistar rats
cond: rat, im, 120 mg/kg
property_measured: concentration at 360 h (ng/mL)
Numbers only, in ng/mL.

Measured concentration at 360 h of CCCCCCCCCC(=O)O[C@@H](c1cccc(OC)c1OC)C1CCN(CCc2ccc(F)cc2)CC1 : 52.4
